Assay: qHTS assay to identify small molecule antagonists of the estrogen related receptor (ERR) signaling pathway from Tox21 library (AID 1224848); also: nearly all actives have a fitted effect of over 50% in size
Details: ERR reporter cell line, luciferase antagonist mode, 18 h; series mostly up to 92.4 µM
Inconclusive results are not listed. Activity calls are given as the source filed them. Calls follow the shape of the dose curve; as a rule, active = well fitted inhibition curve with a large enough effect in the repeat runs; inconclusive = weak or mixed curves; inactive = no such curve, though single readings can be large or run the other way.
Write down the outcome that applies. Available outcomes: active, inactive

Qu. What classification did O=C1[C@H]2CCCC[C@H]2C(=O)N1CCCCN1CCN(c2nsc3ccccc23)CC1 end up with in this test?
Ans. active

Qu. Which outcome did this test record for the compound CCN(CC)c1ccc2c(-c3ccccc3C(=O)O)c3ccc(=[N+](CC)CC)cc-3oc2c1 ?
Ans. active

Qu. Could you check what this test reported for Cc1oc2c(NC(=O)c3c(Cl)cccc3Cl)cccc2c1C(C)(C)O ?
Ans. active

Qu. Outcome? COc1ccc(-c2nc3ccc(C4=NNC(=O)CC4C)cc3[nH]2)cc1 (stereo not given)
Ans. inactive

Qu. Hey, what did the test say about CCOC(=O)C(O)c1ccccc1 (stereo not given) ?
Ans. inactive
